assaySystem: T1, 4H730-bN
T1 chain: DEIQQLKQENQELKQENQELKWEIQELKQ
experimentalDetails: two-hybrid library CCNG1;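 note: natural log of median RNA to DNA barcode read ratio; higher means stronger binding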
The reader will find reported interaction score values listed item by item below.
measurementName: interaction score

DKIQQLKQEIQELEQENQELKWEIQELEQ [4H2585-bN]    -0.949
DEIQQLKQENQELKQENQELKWEIQELKQ [4H730-bN]    1.55
DKIQQLKQKIQELKQKNQELEWENQELEQ [4H2931-bN]    -1.27
DKIQQLEQENQELKQEIQELKWKIQELEQ [4H2253-bN]    -0.523
DKNQQLEQKIQELEQKIQELEWENQELKQ [4H3364-bN]    0.217
DKIQQLKQKIQELEQKIQELKWENQELEQ [4H2859-bN]    -1.23
DKIQQLKQKNQELKQKIQELEWEIQELEQ [4H3041-bN]    -1.37
DKIQQLEQEIQELKQKNQELEWEIQELKQ [4H2162-bN]    -0.649
DEIQQLEQKIQELEQEIQELEWKNQELKQ [4H264-bN]    0.137
DKIQQLEQKNQELKQENQELEWKIQELKQ [4H2518-bN]    1.02
DEIQQLEQKIQELKQENQELKWKIQELEQ [4H349-bN]    -1.05
DKIQQLKQENQELKQEIQELEWKNQELKQ [4H2760-bN]    -0.45
DKNQQLEQKIQELEQKNQELEWKIQELEQ [4H3381-bN]    -1.25
